System: OVCAR-5 ovarian
assay-text: NCI tumour cell line growth inhibition, 48 h; in the data active = GI50 below about 0.43 µM; inactive = the rest
Please answer using one outcome listed in 1 = active, 0 = inactive

1. COc1ccc(/C=C2/CCOC2=O)cc1
0
2. CCCCCCCCOC(=O)c1cc(O)c(O)c(O)c1
0
3. CCOc1ccc2c(-c3ccnc(Nc4cccc(C(F)(F)F)c4)n3)cnn2n1
0
4. COc1cc(/C=C\c2cc(/C=C\c3ccc(O)c(OC)c3)n(C(=O)Nc3ccc(C(F)(F)F)cc3)n2)ccc1O
0

Q: How was "C=C(C)[C@@H]1CC[C@]2(c3ncc(C)o3)CC[C@]3(C)[C@H](CC[C@@H]4[C@@](C)(CCC#N)[C@H](C(=C)C)CC[C@]43C)[C@@H]12" classified in this test?
Result: 0

Q: Call for entry "CCC(=O)[O-].CCC(=O)[O-].N.N.N.N.[Co+3].[O-][Cl+3]([O-])([O-])[O-]" :
Result: 0

Q: In this assay, the call recorded for "Cc1ccc2nc(NC(=O)CSC(=S)N3CCN(Cc4ccccc4)CC3)sc2c1" was what?
Result: 0

Q: For "COc1ccc(OC)c(-c2cn3nc(-c4c[nH]c5ccc(Br)cc45)sc3n2)c1" , which call appears in the assay record?
Result: 0

Q: Outcome? "CN1CCN(c2ccc3nc(-c4ccc5nc(-c6ccc(C(F)(F)F)cc6)[nH]c5c4)[nH]c3c2)CC1"
Result: 0

---

Tested on: SNB-19 CNS
assay-text: NCI tumour cell line growth inhibition, 48 h; in the data active = GI50 below about 0.43 µM; inactive = the rest
# valid calls are active, inactive; nothing else

1. O=C1c2ccccc2C(=O)c2c1c(NCCNCCO)c1cc[nH]c1c2NCCNCCO
inactive

Q: Which outcome was entered for the molecule "COc1cc2c(c(OC)c1OC)C(=O)c1c-2n(CCCN)c(=O)c2cc([N+](=O)[O-])ccc12" in this test?
Result: inactive

---

Measured TGI, listed per entry.
System: HCT-15 colon
assay-text: NCI tumour cell line growth inhibition, 48 h

1) O=c1oc2ccccc2c(O)c1C(c1ccc([N+](=O)[O-])cc1)c1c(O)c2ccccc2oc1=O
> 100 µM
2) O=C(c1cccs1)N(C(=S)OCc1ccccn1)c1ccccc1
> 100 µM
3) CCCCCCCCOC(=O)c1cc(O)c(O)c(O)c1
18.3 µM
4) NC(CCc1nc(-c2ccccc2)cs1)C(=O)O (stereo unspecified)
> 100 µM
5) CC(C)(C)c1ccc(NC(=O)c2cc(=O)c3ccccc3[nH]2)c(C(C)(C)C)c1O
15.5 µM
6) CCN(CC)CCNC(=O)c1ccccc1Nc1c(Cl)cccc1Cl
26 µM
7) O=C(CCNC(=O)OCc1ccccc1)OCCCNC(=O)OCc1ccccc1
> 100 µM
8) Cc1ccc(-c2n[nH]c(=O)n2N)cc1
> 100 µM
9) CCOC(=O)c1c(N2CCOCC2)[nH]c(=O)c(C(c2ccc(N(C)C)cc2)c2c(O)c(C(=O)OCC)c(N3CCOCC3)[nH]c2=O)c1O
> 100 µM
10) COc1ccc(CCNC(=O)Cc2ccccc2CCO)cc1OC
> 100 µM

Q: Using the record for CCOc1ccccc1N=NC1C(=O)N(C(=O)CC(=O)Nc2ccccc2Cl)N=C1C (stereo unspecified) , state its measured TGI.
Result: > 100 µM

Q: Write down TGI measured for item "CC(C)C(OC(=O)c1cc(NC(=S)c2ccccc2)ccc1Cl)C(C)C"
Result: 74.4 µM

Q: Give recorded TGI. CC(=O)OC1CC(C)c2c1ncnc2N1CCN(C(=O)OC(C)(C)C)CC1 (stereo unspecified)
Result: > 100 µM

---

Tested on: SF-295 CNS
assay-text: NCI tumour cell line growth inhibition, 48 h
measured-parameter: TGI

1. CN(C)c1ccc2c(SCC(=O)OCC(=O)[C@@]3(O)CC[C@H]4[C@@H]5CCC6=CC(=O)C=C[C@]6(C)[C@H]5C(=O)C[C@@]43C)c3ccc(N(C)C)cc3nc2c1
> 100 µM

Q: Indicate its recorded TGI; the compound in question is "C#Cc1cccc(N2C(=O)CC(=P(c3ccccc3)(c3ccccc3)c3ccccc3)C2=O)c1"
Result: > 100 µM

Q: Fill in reported TGI for this entry: CC(=O)[CH-]C(=O)c1ccccc1.CC(=O)[CH-]C(=O)c1ccccc1.CC(C)CCCC(C)[C@H]1CCC2[C@@H]3CCC4C[C@@H]([O-])CC[C@]4(C)C3CC[C@@]21C.CC(C)CCCC(C)[C@H]1CCC2[C@@H]3CCC4C[C@@H]([O-])CC[C@]4(C)C3CC[C@@]21C.Cl.[Ti+4] (stereo not given in full)
Result: > 25 µM

Q: Report TGI for C=CC1(C)/C(=N\O)C(C)(CC)C(=O)N1O (stereo not given)
Result: > 100 µM

Q: Identify measured TGI associated with COC(=O)C1=C(O)C(C(=O)OC)[C@@]2(O)[C@@H](C(=O)OC)C(c3ccc(OC(=O)/C(=C/c4ccccc4)c4ccccc4)cc3)C[C@@H]1[C@@H]2C(=O)OC (stereo not given in full)
Result: > 100 µM

Q: Return the recorded TGI value; entry: CCC1N2CCCCC2[C@@H]2c3[nH]c4ccccc4c3CCN12 (stereo not given in full)
Result: > 100 µM

Q: Report measured TGI; entry is "Cc1cc(Cl)ccc1OCC(=O)Oc1c(Cl)c(Cl)c(Cl)c(Cl)c1Cl"
Result: 67.9 µM

Q: Fill in TGI for record COc1cc(C(C)c2cc3c(cc2OCCOCCOc2cc4c(cc2C(C)c2cc(OC)c(OC)c(OC)c2)OCO4)OCO3)cc(OC)c1OC (stereo not given)
Result: > 100 µM

Q: Tell me its TGI given "O=c1cc(-c2ccccc2)oc2cc(OCc3cn(Cc4ccc(F)cc4)nn3)cc(O)c12" as the entry.
Result: 46.8 µM

Q: Recall and state the measured TGI for "CC(C)(C)OC(=O)N(CCCn1c2c(c3ccccc3c1=O)C(=O)c1ccccc1-2)CCN(CCCn1c2c(c3ccccc3c1=O)C(=O)c1ccccc1-2)C(=O)OC(C)(C)C" .
Result: > 50 µM

Q: Complete the entry with TGI for "C=C(C)[C@@H]1CC[C@]2(c3ncc(C)o3)CC[C@]3(C)[C@H](CC[C@@H]4[C@@](C)(CCC#N)[C@H](C(=C)C)CC[C@]43C)[C@@H]12"
Result: 21.2 µM

Q: Provide TGI value for the following compound: "CCC(=O)NCC1(c2c[nH]c3ccccc23)SCCS1"
Result: > 100 µM

Q: Identify the reported TGI for the following entry. N#CC1(C#N)C(c2ccccc2)NC23CCCCC2C1(C#N)C(=O)N3 (stereo not given)
Result: > 100 µM

Q: Hello, please tell me recorded TGI for this one: CCOC(=O)C1=C(C)N2CCCOC2(C)C(C(=O)OC)C1c1cccc([N+](=O)[O-])c1 (stereo not given)
Result: > 100 µM

Q: Answer with reported TGI of CC(=O)C1C(=O)C(=O)N(c2ccc(Cl)cc2C)C1=O (stereo not given)
Result: > 100 µM

---

Tested on: OVCAR-4 ovarian
assay-text: NCI tumour cell line growth inhibition, 48 h; in the data active = GI50 below about 0.43 µM; inactive = the rest
Bench note: report the call from active, inactive

Example results:
1. COc1cc2c(c(OC)c1OC)C(=O)c1c-2n(CCCN)c(=O)c2cc([N+](=O)[O-])ccc12
active
2. Cc1cc(C)c(S(=O)(=O)Oc2ccccc2[N+](=O)[O-])c(C)c1
inactive
3. O=C(Oc1ccccc1Cl)c1cccnc1Nc1ccnc(C(F)(F)F)c1
inactive

Consider the additional compound presented here.
Q: Please state the recorded outcome for this compound: "C=C(C)[C@@H]1CC[C@]2(c3ncc(C)o3)CC[C@]3(C)[C@H](CC[C@@H]4[C@@](C)(CCC#N)[C@H](C(=C)C)CC[C@]43C)[C@@H]12"
Result: inactive

---

System: SF-268 CNS
assay-text: NCI tumour cell line growth inhibition, 48 h
measured-parameter: TGI

Q: Please report the measured TGI for "O=C(CN1CCOCC1)NC1=Nc2ncccc2C(=O)NN1"
Result: > 10 µM

Q: Output measured TGI for this item: CCOC(=O)C1C(=O)CC(C)(O)C(C(=O)OCC)C1c1ccc(O)c(OC)c1 (stereo not given)
Result: > 100 µM

Q: Input "COc1ccc(Oc2nc3cc(C(F)(F)F)ccc3nc2C(C)C)cc1" , output reported TGI.
Result: > 100 µM

Q: Output measured TGI for this item: "Cc1ccc2nc(NC(=O)CSC(=S)N3CCN(Cc4ccccc4)CC3)sc2c1"
Result: > 100 µM

Q: Output measured TGI for this item: "O=C(N/N=C/c1cc(Br)cc(Br)c1[O-])c1ccccc1O.O=C(N/N=C/c1cc(Br)cc(Br)c1[O-])c1ccccc1O.[Cl-].[Fe+3]"
Result: 33.1 µM

Q: Report measured TGI; entry is "COC(=O)c1ccc(NCc2cc(O)c3ccccc3c2O)cc1"
Result: > 73.1 µM

Q: Return TGI for the following molecule: "C/C=C1/CN2CC[C@@H]3c4ccccc4N4[C@H](C(=O)OC)[C@H]1C[C@H]2[C@]34/C=C/C1=COC[C@@H]2[C@H]1C[C@H]1c3c(c4ccccc4n3C)C[C@@H]2N1C"
Result: 7.16 µM

Q: Read off the recorded TGI for CC(=O)OC1CC(C)c2c1ncnc2N1CCN(C(=O)OC(C)(C)C)CC1 (stereo not given)
Result: > 100 µM

Q: Provide only the value of recorded TGI for "O=C1c2ccccc2C(=O)c2[nH]c(=O)c(/C=N/Nc3ccc([N+](=O)[O-])cc3)nc21"
Result: 29.6 µM

Q: Return value of TGI for input "C/C(CC(=O)Nc1ccc(C)cc1)=N\NC(N)=S" , no commentary.
Result: > 100 µM

Q: Output measured TGI for this item: "O=C(O/N=C1/CCC/C1=C\c1ccccc1)c1ccc(Cl)cc1"
Result: > 100 µM

Q: Give TGI for c1ccc(SCCP(CCP(c2ccccc2)c2ccccc2)c2ccccc2)cc1 (stereo not given)
Result: > 100 µM
